The reported numbers originate from patent US20100298282A1.

target: native glucocorticoid receptors (Homo sapiens, UniProt P04150); construct: cell line that expresses native glucocorticoid receptors; endogenous in cells; experiment: Glucocorticoid reporter gene assay (GRE-luciferase) in SW1353 cells, GR antagonist activity; conditions: 24 hours, in the presence of 50 nM dexamethasone
Sequence (P04150 whole entry): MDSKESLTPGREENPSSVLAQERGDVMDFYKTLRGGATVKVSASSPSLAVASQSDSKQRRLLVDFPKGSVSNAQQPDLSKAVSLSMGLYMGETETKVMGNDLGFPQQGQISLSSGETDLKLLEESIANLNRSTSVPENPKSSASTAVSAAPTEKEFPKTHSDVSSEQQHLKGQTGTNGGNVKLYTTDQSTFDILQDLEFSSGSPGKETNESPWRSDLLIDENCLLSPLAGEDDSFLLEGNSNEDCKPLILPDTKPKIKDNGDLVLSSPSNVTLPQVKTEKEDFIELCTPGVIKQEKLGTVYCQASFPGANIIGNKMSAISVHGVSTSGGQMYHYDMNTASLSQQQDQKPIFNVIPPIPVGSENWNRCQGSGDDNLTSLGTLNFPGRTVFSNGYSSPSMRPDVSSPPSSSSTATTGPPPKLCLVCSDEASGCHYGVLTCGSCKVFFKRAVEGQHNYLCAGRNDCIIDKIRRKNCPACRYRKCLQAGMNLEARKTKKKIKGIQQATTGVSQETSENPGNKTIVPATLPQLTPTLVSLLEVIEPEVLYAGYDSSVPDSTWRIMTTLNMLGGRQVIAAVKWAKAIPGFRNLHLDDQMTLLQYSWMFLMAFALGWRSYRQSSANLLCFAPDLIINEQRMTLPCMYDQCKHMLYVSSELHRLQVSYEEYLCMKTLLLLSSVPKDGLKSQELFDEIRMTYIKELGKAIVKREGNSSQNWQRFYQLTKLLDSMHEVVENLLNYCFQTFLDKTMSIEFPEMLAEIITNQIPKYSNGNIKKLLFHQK
pIC50: −log10 of the molar value.
Listed here: items and their measured pIC50.

Compound	Measurement Target	pIC50
CN(C)c1ccc([C@H]2C[C@@]3(C)[C@@H](CC[C@]3(O)C#CCO)[C@@H]3CCC4=CC(=O)CCC4=C32)cc1 [RU42698]	native glucocorticoid receptors (Homo sapiens, UniProt P04150)	7.09
CC#C[C@]1(O)CC[C@H]2[C@@H]3CCC4=CC(=O)CCC4=C3[C@@H](c3ccc(NC)cc3)C[C@@]21C [RU42633]	native glucocorticoid receptors (Homo sapiens, UniProt P04150)	7.76
CC#C[C@]1(O)CC[C@H]2[C@@H]3CCC4=CC(=O)CCC4=C3[C@@H](c3ccc(N)cc3)C[C@@]21C [RU42848]	native glucocorticoid receptors (Homo sapiens, UniProt P04150)	7.23
